Test system: HCT-15 colon
assayComment: NCI-60 one-dose screen, 48 h
assayConditions: 10 µM unless noted
This is part of a sample that, as a whole, favours compounds with a hit. Of some 83,000 tested, about 20% had one in any assay. Active and inactive are the calls of the source. Rule for the calls: active = growth percent below 10; inactive = the rest.
Use one of these outcomes when replying: active, inactive

Example entries and their recorded answers appear below.
Cc1noc(C)c1CSc1nc2ccccc2n1-c1ccccc1 | inactive
C[C@@H](Nc1ncnc2ccc(-c3cnc(Cl)c(NS(C)(=O)=O)c3)cc12)c1ccccc1 | inactive
CCN1CCN(Cc2cn(-c3ccc(S(N)(=O)=O)cc3)nn2)CC1 | inactive
COc1c(N2CC3CCCNC3C2)c(F)cc2c(=O)c(C(=O)N/N=C/c3c[nH]c4ccccc34)cn(C3CC3)c12 (centres undefined) | inactive
C#CCNC1CCC(c2csc(C#C)n2)=C1C (centres undefined) | inactive
O=S(=O)(Nc1ccc2c(c1)OCO2)c1ccc(-c2cnc(C3CC3)o2)cc1 | inactive

Check the results log: what was the call for Cc1ccc2sc3c(c2c1)OC(N)=C(C#N)C3c1cccc(F)c1 (centres undefined) ? active

In this assay, the call recorded for C=C(C)[C@@H]1CC[C@]2(COCCCNCCC#N)CC[C@]3(C)[C@H](CC[C@@H]4[C@@]5(C)CC[C@H](OCCCNCCC#N)C(C)(C)[C@@H]5CC[C@]43C)[C@@H]12 was what? inactive

Status in this test for COc1ccc(CCOc2cc3c(cc2OC)CCN(C(=O)NCc2cocn2)C3c2ccc(C)cc2C)cc1 (centres undefined) ? active
